- System: Fusarium oxysporum
- experimental_protocol: Antifungal activity against Fusarium oxysporum at 50 ug/ml by poison plate technique
- Type: functional
# inhibition at 50 µg/mL listing for each entry below
In your response, the unit should come after the numeric value.

Here are 4 molecules together with their reported answers.
molecule	inhibition at 50 µg/mL
Cc1cc(O)no1	52.1%
COc1cc(-c2nnc([S+]([O-])Cc3cccc([N+](=O)[O-])c3)s2)cc(OC)c1OC (stereo not given)	3.31%
COc1cc(-c2nnc([S+]([O-])Cc3ccccc3F)o2)cc(OC)c1OC (stereo not given)	4.4%
CCOC(=O)C[S+]([O-])c1nnc(-c2cc(OC)c(OC)c(OC)c2)s1 (stereo not given)	4.58%

Okay, now this molecule:
COc1cccc(C[S+]([O-])c2nnc(-c3cc(OC)c(OC)c(OC)c3)s2)c1 (stereo not given) yielded inhibition at 50 µg/mL of 8.65%
